# EXPERIMENT SUMMARY: binders of r(CAG) RNA repeats, primary screen, biochemical, fluorescence (AID 651821);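 note: 0% = DMSO alone and 100% = 100 µM mitoxantrone as full dye displacement; higher means more dye released from RNA so lower well fluorescence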
# ASSAY CONTEXT: r(CAG) RNA repeat, TO-PRO-1 dye displacement fluorescence; at 3 µM; hits give high values
Among all 370,000 compounds or so, about 4,700 (1.3%) were called active. The sample holds actives, similar compounds and a random draw of the others, so the mix is not that of the screen.
Recorded inhibition for the following molecules
VALUE KIND: inhibition (%)

{"MOLECULE": "O=C(CN1CCN(c2ncc(C(F)(F)F)cc2Cl)CC1)Nc1ccc2c(c1)OCO2", "VALUE KIND": "inhibition", "RESULT UNITS": "%", "VALUE REPORTED": -4.82}
{"MOLECULE": "NS(=O)(=O)c1ccc(NC2=CC(c3ccc(F)cc3)N(c3ccc(S(N)(=O)=O)cc3)C2=O)cc1 (centres undefined)", "VALUE KIND": "inhibition", "RESULT UNITS": "%", "VALUE REPORTED": 45.7}
{"MOLECULE": "NS(=O)(=O)c1ccc(NC(=O)COC(=O)C2(c3ccc(F)cc3)CCCC2)cc1", "VALUE KIND": "inhibition", "RESULT UNITS": "%", "VALUE REPORTED": 18.1}
{"MOLECULE": "Cc1ccc(C(=O)O)cc1-c1ccc(/C=C2\\SC(=O)N(CC(=O)Nc3ccc4c(c3)OCO4)C2=O)o1", "VALUE KIND": "inhibition", "RESULT UNITS": "%", "VALUE REPORTED": 56}
{"MOLECULE": "COc1ccc(S(=O)(=O)Nc2ccc3c(c2)C(=O)N([C@H](C)CO)C[C@H](C)[C@@H](CN(C)C)OCCCC[C@H](C)O3)cc1", "VALUE KIND": "inhibition", "RESULT UNITS": "%", "VALUE REPORTED": 8.48}
{"MOLECULE": "CCc1cccc(C)c1N(C(=O)Cn1c(CO)nc2ccccc21)C(C)COC (centres undefined)", "VALUE KIND": "inhibition", "RESULT UNITS": "%", "VALUE REPORTED": -9.89}
{"MOLECULE": "CCOC(=O)c1cccc(NC(=O)CN(C)S(=O)(=O)c2ccc(-c3cocn3)s2)c1", "VALUE KIND": "inhibition", "RESULT UNITS": "%", "VALUE REPORTED": 2.95}
{"MOLECULE": "CN1C[C@]2(C=C3CCCCC3n3c(=O)n(-c4ccccc4)c(=O)n32)N=C1NC(=O)c1ccccc1 (some centres undefined)", "VALUE KIND": "inhibition", "RESULT UNITS": "%", "VALUE REPORTED": 8.01}
{"MOLECULE": "Cn1c(=O)c2ccccc2n(CC(=O)Nc2ccc3c(c2)OCCO3)c1=O", "VALUE KIND": "inhibition", "RESULT UNITS": "%", "VALUE REPORTED": -1.32}
